Target: FLT3 (Homo sapiens, UniProt P36888)
Sequence (P36888 27-993): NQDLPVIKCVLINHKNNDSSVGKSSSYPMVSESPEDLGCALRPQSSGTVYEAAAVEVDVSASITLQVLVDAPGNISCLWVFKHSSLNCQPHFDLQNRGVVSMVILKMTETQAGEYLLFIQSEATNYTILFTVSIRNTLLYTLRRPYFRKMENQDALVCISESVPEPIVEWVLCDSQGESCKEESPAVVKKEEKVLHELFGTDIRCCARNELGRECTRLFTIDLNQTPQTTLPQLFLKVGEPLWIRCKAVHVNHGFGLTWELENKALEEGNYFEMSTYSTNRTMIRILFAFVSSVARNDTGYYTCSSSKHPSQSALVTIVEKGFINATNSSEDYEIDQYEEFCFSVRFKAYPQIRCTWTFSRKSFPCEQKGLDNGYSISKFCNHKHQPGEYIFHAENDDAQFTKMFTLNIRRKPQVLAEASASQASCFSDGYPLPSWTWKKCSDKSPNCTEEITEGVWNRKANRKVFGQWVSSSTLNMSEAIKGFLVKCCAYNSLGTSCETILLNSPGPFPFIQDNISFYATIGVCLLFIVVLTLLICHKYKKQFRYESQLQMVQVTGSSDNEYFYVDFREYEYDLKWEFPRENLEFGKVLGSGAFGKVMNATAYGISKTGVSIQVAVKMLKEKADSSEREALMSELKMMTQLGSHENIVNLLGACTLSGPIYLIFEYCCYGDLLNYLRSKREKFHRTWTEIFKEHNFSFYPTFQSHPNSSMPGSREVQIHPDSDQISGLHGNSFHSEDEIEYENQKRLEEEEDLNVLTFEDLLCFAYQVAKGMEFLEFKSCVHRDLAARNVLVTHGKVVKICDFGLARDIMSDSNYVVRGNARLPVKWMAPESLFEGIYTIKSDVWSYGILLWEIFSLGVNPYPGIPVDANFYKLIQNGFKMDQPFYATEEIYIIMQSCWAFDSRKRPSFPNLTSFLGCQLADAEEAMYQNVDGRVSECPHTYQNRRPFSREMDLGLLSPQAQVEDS
Test: RBC HotSpot Kinase Assay, FLT3
Type: biochemical
Set-up: purchased Reaction Biology (RBC HotSpot)
Settings: isolated kinase enzyme, 33P-ATP, P81 filter-binding

[
  {
    "molecule": "COc1cc2ncc(-c3ccnc(N[C@@H]4CCCNC4)n3)n2nc1C1CC(C)(C)C1 [Compound 81a]",
    "qualifier": "<",
    "IC50 / nM": 0.5
  },
  {
    "molecule": "COc1cc2ncc(-c3cncc(N[C@H]4CNC[C@@H]4F)n3)n2nc1C1CC(F)(F)C1 [Compound 71a]",
    "qualifier": "=",
    "IC50 / nM": 1
  },
  {
    "molecule": "COc1cc2ncc(-c3nc(N[C@@H]4CCCNC4)ncc3Cl)n2nc1C1CC1 [Compound 102a]",
    "qualifier": "<",
    "IC50 / nM": 0.5
  },
  {
    "molecule": "CC(C)(O)c1cn2c(-c3nc(N[C@H]4CNC[C@@H]4F)ncc3F)cnc2cn1 [Compound 98a]",
    "qualifier": "=",
    "IC50 / nM": 1
  }
]

Where do the numbers come from? From patent US20260226048A1.
